Hello, the source for this data is paper PMC7575488, in case you need it.

# assay_details: Blood pharmacokinetics (dried blood spot LC-MS/MS, non-compartmental analysis)
# Type: in vivo, human
# conditions_used: human, whole blood, oral, 200 mg, 200 mg BID, Cycle 1 Day 1 (single dose), blood, N = 8; geometric mean (% CV 29)
quantity_kind: AUC(0-inf)

Query block: Reported AUC(0-inf) for CO[C@@H](C)Cn1c(=O)n(C)c2cnc3ccc(-c4cncc(C(C)(C)O)c4)cc3c21 : what is it?
Result block: 4.12 µg·h/mL

====

# assay_details: Blood pharmacokinetics (dried blood spot LC-MS/MS, non-compartmental analysis)
# Assay type: in vivo, human
# conditions_used: human, whole blood, oral, 200 mg, 200 mg BID, Cycle 1 Day 15 (multiple dose), blood, N = 7; geometric mean (% CV)
quantity_kind: AUC(0-inf) (ng·h/mL)
Respond with the bare value in ng·h/mL.

Query block: Reported AUC(0-inf) for CO[C@@H](C)Cn1c(=O)n(C)c2cnc3ccc(-c4cncc(C(C)(C)O)c4)cc3c21 : what is it?
Result block: 4210
